Source: patent US8759366B2

# STUDY_SYSTEM: rhSYK (Homo sapiens (Human), UniProt P43405)
# DETAILS: read-out: rhSYK activity
RESULT_TYPE: IC50

Some compounds with recorded IC50:
| COMPOUND | VALUE_OBSERVED |
| --- | --- |
| Cc1cc(Nc2nccc(C(F)(F)F)n2)cc(-c2cnc(C3(O)CCC4(C)C(=O)CCC4(O)C3)s2)c1 (stereo not shown) | < 100 nM |
| Cc1cc(Nc2ncc(Cl)cn2)cc(-c2cnc(C(O)(CO)CO)s2)c1 | 100 to 1000 nM |
| CC(O)(CO)c1ncc(-c2cc(F)cc(Nc3ncc(F)c(C4CC4)n3)c2)s1 (stereo not shown) | < 100 nM |
| CC(C)(CO)c1ncc(-c2cccc(Nc3nccc(C(F)(F)F)n3)c2)s1 | < 100 nM |
| Nc1cc(Nc2nccc(C(F)(F)F)n2)cc(-c2cnc(C3(O)CCC3)s2)c1 | < 100 nM |
| OC1(c2ncc(-c3cc(NCC(F)(F)F)cc(Nc4nccc(C(F)(F)F)n4)c3)s2)CCC1 | < 100 nM |

Request - read-out IC50 | tested on rhSYK (Homo sapiens (Human), UniProt P43405) | compound Cc1cc(Nc2nccc(C(F)(F)F)n2)cc(-c2cnc(C3(O)CCN(C(N)=O)CC3)s2)c1
< 100 nM

Request - read-out IC50 | tested on rhSYK (Homo sapiens (Human), UniProt P43405) | compound Cc1cc(Nc2ncc(Cl)cn2)cc(-c2cncs2)c1 [Intermediate 48]
100 to 1000 nM

Request - read-out IC50 | tested on rhSYK (Homo sapiens (Human), UniProt P43405) | compound CC1(C)CC(O)(c2ncc(-c3cccc(Nc4nccc(C(F)(F)F)n4)c3)s2)CC(C)(C)S1
1000 to 10000 nM

Request - read-out IC50 | tested on rhSYK (Homo sapiens (Human), UniProt P43405) | compound CC(C)(C)OC(=O)N1CCC(C(C)(O)c2ncc(-c3cccc(Nc4nccc(C(F)(F)F)n4)c3)s2)CC1 (stereo not shown)
100 to 1000 nM

Request - read-out IC50 | tested on rhSYK (Homo sapiens (Human), UniProt P43405) | compound Cc1cc(Nc2nccc(C(=O)O)n2)cc(-c2cnc(C(C)(O)C(F)(F)F)s2)c1 (stereo not shown)
1000 to 10000 nM

---

# STUDY_SYSTEM: recombinant human SYK (GST-hSYK fusion protein) (Homo sapiens (Human))
# DETAILS: read-out: rhSYK Activity; Table 113C
pIC50: −log10 of the molar value.
RESULT_TYPE: pIC50

Some compounds with recorded pIC50:
| COMPOUND | pIC50 |
| --- | --- |
| Cc1cc(Nc2nccc(C(C)F)n2)cc(-c2cnc(C3(O)CCNC(=O)CC3)s2)c1 (single isomer, unassigned) [113C-3] | > 7.00 |
| Cc1cc(Nc2nccc(C(C)F)n2)cc(-c2cnc(C3(O)CCNC(=O)CC3)s2)c1 (single isomer, unassigned) [113C-4] | > 7.00 |

Request - read-out pIC50 | tested on recombinant human SYK (GST-hSYK fusion protein) (Homo sapiens (Human)) | compound Cc1cc(Nc2ncc(Cl)c(C)n2)cc(-c2cnc(C3(O)CCNC(=O)CC3)s2)c1 (stereo not drawn) [113C-5]
> 7.00

Request - read-out pIC50 | tested on recombinant human SYK (GST-hSYK fusion protein) (Homo sapiens (Human)) | compound Cc1cc(Nc2ncc(F)c(C)n2)cc(-c2cnc(C3(O)CCNC(=O)CC3)s2)c1 (stereo not drawn) [113C-1]
> 7.00

Request - read-out pIC50 | tested on recombinant human SYK (GST-hSYK fusion protein) (Homo sapiens (Human)) | compound Cc1cc(Nc2nccc(C(C)C)n2)cc(-c2cnc(C3(O)CCCN(C(=O)OC(C)(C)C)CC3)s2)c1 (single isomer, unassigned) [113C-20]
6.00 to 7.00

---

# STUDY_SYSTEM: rhSYK (Homo sapiens (Human), UniProt P43405)
# DETAILS: read-out: rhSYK activity
RESULT_TYPE: IC50

Some compounds with recorded IC50:
| COMPOUND | IC50 |
| --- | --- |
| Cc1cc(Nc2nccc(C(F)(F)F)n2)cc(-c2cnc(C(C)(O)c3ccc(CC(=O)O)cc3)s2)c1 (single isomer, unassigned) [Example 4A-59] | 100 to 1000 nM |
| Cc1cc(Nc2nccc(C(F)(F)F)n2)cc(-c2cnc(C3(O)CCN(c4ccccc4C)CC3)s2)c1 [4D-9] | 100 to 1000 nM |
| OCCC(O)(CCO)c1ncc(-c2cccc(Nc3nccc(C(F)(F)F)n3)c2)s1 [Example 5] | 100 to 1000 nM |
| CC(C)N1CCC(O)(c2ncc(-c3cccc(Nc4nccc(C(F)(F)F)n4)c3)s2)CC1 [4D-5] | 100 to 1000 nM |
| CC(O)(CO)c1ncc(-c2cccc(Nc3nccc(C(F)(F)F)n3)c2)s1 (single isomer, unassigned) [Ex 5-3] | < 100 nM |

Request - read-out IC50 | tested on rhSYK (Homo sapiens (Human), UniProt P43405) | compound Cc1cc(Nc2nccc(C(F)(F)F)n2)cc(-c2cnc(CS(N)(=O)=O)s2)c1 [Example 75]
< 100 nM

Request - read-out IC50 | tested on rhSYK (Homo sapiens (Human), UniProt P43405) | compound Cc1cc(Nc2nccc(C(F)(F)F)n2)cc(-c2cnc(C3(O)CCN(c4cccc(F)c4)CC3)s2)c1 [4D-10]
100 to 1000 nM

---

# STUDY_SYSTEM: recombinant human SYK (GST-hSYK fusion protein) (Homo sapiens (Human))
# DETAILS: read-out: rhSYK Activity; recombinant human SYK, HTRF assay; class symbols
pIC50: −log10 of the molar value.
Listed here: items and their measured pIC50.

| COMPOUND | pIC50 |
| --- | --- |
| Cc1cc(Nc2nccc(C(F)(F)F)n2)cc(-c2cnc(C3(O)CCCN(CC(=O)OC(C)(C)C)CC3)s2)c1 (stereo not drawn) [Example 54A-89] | > 7.00 |

What does the record list as pIC50 for Cc1cc(Nc2nccc(C(F)(F)F)n2)cc(-c2cnc(C3(O)CCN(C(=O)CC(=O)O)CC3)s2)c1 [Example 54A-26] ?
> 7.00

What does the record list as pIC50 for Cc1cc(Nc2nccc(C(F)(F)F)n2)cc(-c2cnc(C3(O)CCCN(C(=O)c4ccc(O)c(F)c4)CC3)s2)c1 (racemic) [Example 54D-103] ?
> 7.00

---

# STUDY_SYSTEM: rhSYK (Homo sapiens (Human))
# DETAILS: read-out: rhSYK activity
pIC50: −log10 of the molar value.
Listed here: items and their measured pIC50.

| COMPOUND | RESULT_TYPE | VALUE_OBSERVED |
| --- | --- | --- |
| Cc1cc(Nc2nccc(C)n2)cc(-c2cnc(C3(C)OC(=O)CC3(C)C)s2)c1 (stereo not shown) | pIC50 | > 7.00 |
| Cn1ccc(C(C)(O)c2ncc(-c3cccc(Nc4nccc(C(F)(F)F)n4)c3)s2)c1 (stereo not shown) | pIC50 | > 7.00 |
| Cc1cc(Nc2nccc(C(F)(F)F)n2)cc(-c2cnc(C3(O)CCN(C(=O)CCCC(=O)O)CC3)s2)c1 | pIC50 | > 7.00 |
| Cc1cc(Nc2nccc(C(F)(F)F)n2)cc(-c2cnc(C3(O)CCN(c4ccc(F)cc4)CC3)s2)c1 | pIC50 | > 7.00 |
| COC(=O)C1CC(O)(c2ncc(-c3cc(C)cc(Nc4nccc(C(F)(F)F)n4)c3)s2)CCN1C(=O)OC(C)(C)C (stereo not shown) | pIC50 | 6.00 to 7.00 |
| CSc1ccc(C(C)(O)c2ncc(-c3cc(C)cc(Nc4nccc(C(F)(F)F)n4)c3)s2)cc1 (stereo not shown) | pIC50 | 6.00 to 7.00 |

Okay, next one:
What does the record list as pIC50 for Cc1cc(Nc2nccc(C)n2)cc(-c2cnc(C3(O)C4CC5CC3CC(O)(C5)C4)s2)c1 (stereo not shown) ?
> 7.00

---

# STUDY_SYSTEM: rhSYK (Homo sapiens (Human), UniProt P43405)
# DETAILS: read-out: rhSYK activity
pIC50: −log10 of the molar value.
RESULT_TYPE: pIC50

| COMPOUND | VALUE_OBSERVED |
| --- | --- |
| OC1(c2ncc(-c3cccc(Nc4nccc(C(F)(F)F)n4)c3)s2)CC2CCC1N2 (stereo not drawn) [Example 4B-10] | 6.00 to 7.00 |

Request - read-out pIC50 | tested on rhSYK (Homo sapiens (Human), UniProt P43405) | compound Cc1cc(Nc2nccc(C(F)(F)F)n2)cc(-c2cnc(C3(O)CCCC4CC43)s2)c1 (stereo not drawn) [Example 4B-18]
> 7.00

Request - read-out pIC50 | tested on rhSYK (Homo sapiens (Human), UniProt P43405) | compound CNC(=O)N1CCC(O)(c2ncc(-c3cc(C)cc(Nc4nccc(C(F)(F)F)n4)c3)s2)CC1 [Example 52]
> 7.00

Request - read-out pIC50 | tested on rhSYK (Homo sapiens (Human), UniProt P43405) | compound COc1nc(Nc2cc(C)cc(-c3cnc(C(C)(O)CO)s3)c2)ncc1Cl (stereo not drawn) [Ex 5-19]
> 7.00

Request - read-out pIC50 | tested on rhSYK (Homo sapiens (Human), UniProt P43405) | compound CC(O)(c1ncc(-c2cccc(Nc3nccc(C(F)(F)F)n3)c2)s1)C1CCNCC1 (stereo not drawn) [Example 15(2)]
> 7.00

Request - read-out pIC50 | tested on rhSYK (Homo sapiens (Human), UniProt P43405) | compound OC1(c2ncc(-c3cccc(Nc4nccc(C(F)(F)F)n4)c3)s2)COC1 [Example 4B-11]
> 7.00

Request - read-out pIC50 | tested on rhSYK (Homo sapiens (Human), UniProt P43405) | compound Cc1cc(Nc2nccc(C(F)(F)F)n2)cc(-c2cnc([C@]3(O)CC[C@@H](c4noc(=O)[nH]4)CC3)s2)c1 [Example 39]
> 7.00
